Entries and their measured pIC50 follow.
- target_system: Estrogen Receptor (ERα) in MCF-7 cells (Homo sapiens (Human))
- Sequence (P03372 whole entry): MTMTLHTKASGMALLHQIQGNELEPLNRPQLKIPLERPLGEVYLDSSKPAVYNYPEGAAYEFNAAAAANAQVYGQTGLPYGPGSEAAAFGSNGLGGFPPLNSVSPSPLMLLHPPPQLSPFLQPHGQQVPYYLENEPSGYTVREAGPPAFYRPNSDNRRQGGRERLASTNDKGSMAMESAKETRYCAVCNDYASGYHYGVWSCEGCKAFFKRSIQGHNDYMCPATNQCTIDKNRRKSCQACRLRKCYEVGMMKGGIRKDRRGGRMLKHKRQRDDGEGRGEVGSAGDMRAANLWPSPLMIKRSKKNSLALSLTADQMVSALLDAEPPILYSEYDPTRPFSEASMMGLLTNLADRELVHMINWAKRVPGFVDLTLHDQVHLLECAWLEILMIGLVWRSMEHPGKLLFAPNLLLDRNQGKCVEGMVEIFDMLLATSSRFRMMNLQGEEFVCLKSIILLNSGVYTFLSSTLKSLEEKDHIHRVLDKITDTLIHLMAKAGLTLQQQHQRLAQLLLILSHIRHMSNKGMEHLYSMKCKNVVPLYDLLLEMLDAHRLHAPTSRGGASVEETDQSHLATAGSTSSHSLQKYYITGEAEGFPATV
- method_notes: MCF-7 ER down-regulation assay (immuno-fluorescence)
Quick note: pIC50 means taking -log10 of the concentration in moles per liter.

compound="C[C@@H]1Cc2c(ccc3[nH]ncc23)[C@@H](c2ccc(NC3CN(CCCF)C3)cn2)N1CC1(F)CC1 [Example 3]" value=9.19

Lookup: Report pIC50 for COc1cc(NC2CN(CCC(F)(F)F)C2)ccc1[C@@H]1c2ccc3[nH]ncc3c2C[C@@H](C)N1CC1(F)CC1 [Example 56] tested on Estrogen Receptor (ERα) in MCF-7 cells (Homo sapiens (Human)).
Found: 9.24

Lookup: What do we get for C[C@@H]1Cc2c(ccc3[nH]ncc23)[C@@H](c2ccc(N(C)C3CN(CCCF)C3)cn2)N1CC(F)F [Example 43] ?
Found: 9.60

Lookup: Now the compound COc1cc(NC2CN(CCCF)C2)ccc1[C@@H]1c2ccc3[nH]ncc3c2C[C@@H](C)N1CC(C)(F)F [Example 19]
Found: 10.20

Lookup: Entry to check: C[C@@H]1Cc2c(ccc3[nH]ncc23)[C@@H](c2ccc(NC3CN(CCCF)C3)cn2)N1CC(F)F [Example 25]
Found: 9.48

Lookup: Another compound to look at: C[C@@H]1Cc2c(ccc3[nH]ncc23)[C@@H](c2c(F)cc(NC3CN(CCCF)C3)cc2F)N1CC(F)(F)CO [Example 5]
Found: 10.11

Lookup: Try this compound too: C[C@@H]1Cc2c(ccc3[nH]ncc23)[C@@H](c2ccc(NC3CN(CCCF)C3)cn2)N1CC(F)(F)CO [Example 16]
Found: 9.27

---

- target_system: Estrogen Receptor (ERα) in MCF-7 cells (Homo sapiens (Human))
- method_notes: MCF-7 ER down-regulation assay (immuno-fluorescence)
test_readout: pIC50
// returns pIC50 (minus log10 of molar concentration), number only

Solved cases below.
structure_smiles=COc1cc(NC2CN(CCCF)C2)ccc1[C@@H]1c2ccc3[nH]ncc3c2C[C@@H](C)N1CC(F)F target_system="Estrogen Receptor (ERα) in MCF-7 cells (Homo sapiens (Human))" value=10.01
structure_smiles=C[C@@H]1Cc2c(ccc3[nH]ncc23)[C@@H](c2c(F)cc(NC3CN(CCCF)C3)cc2F)N1CC(F)(F)F target_system="Estrogen Receptor (ERα) in MCF-7 cells (Homo sapiens (Human))" value=10.26
structure_smiles=COc1cc(NC2CN(CCCF)C2)c(F)cc1[C@@H]1c2ccc3[nH]ncc3c2C[C@@H](C)N1CC1(F)CC1 target_system="Estrogen Receptor (ERα) in MCF-7 cells (Homo sapiens (Human))" value=9.59

Please look at the following compound next.
Lookup: May I ask what pIC50 has been recorded for `C[C@@H]1Cc2c(ccc3[nH]ncc23)[C@@H](c2ccc(NC3CN(CCCF)C3)nc2F)N1CC(F)(F)F` ?
Found: 10.00

---

Known pIC50 of a selection of compounds
- target_system: Estrogen Receptor (ERα) in MCF-7 cells (Homo sapiens (Human))
- method_notes: MCF-7 ER down-regulation assay (immuno-fluorescence)
The meaning of pIC50 here: minus log10 of the concentration in molar units.

Recorded results for 6 compounds are shown here.
structure_smiles=COCC(F)(F)CN1[C@H](c2ccc(NC3CN(CCCF)C3)cn2)c2ccc3[nH]ncc3c2C[C@H]1C test_readout=pIC50 value=8.51
structure_smiles=COc1cc(NC2CN(CCCF)C2)ccc1[C@]1(C)c2ccc3[nH]ncc3c2C[C@@H](C)N1CC(F)F test_readout=pIC50 value=9.52
structure_smiles=C[C@@H]1Cc2c(ccc3[nH]ncc23)[C@@H](c2cnc(NC3CN(CCCF)C3)cn2)N1CC1(F)CC1 test_readout=pIC50 value=8.96
structure_smiles=CCOc1cc(NC2CN(CCCF)C2)ccc1[C@@H]1c2ccc3[nH]ncc3c2C[C@@H](C)N1CC1(F)CC1 test_readout=pIC50 value=9.44
structure_smiles=C[C@@H]1Cc2c(ccc3[nH]ncc23)[C@@H](c2ncc(NC3CN(CCCF)C3)cc2F)N1CC(F)F test_readout=pIC50 value=9.40
structure_smiles=C[C@@H]1Cc2c(ccc3[nH]ncc23)[C@@](C)(c2ccc(NC3CN(CCCF)C3)cn2)N1CC(F)F test_readout=pIC50 value=9.04

Continue with the compound presented below.
Lookup: Form: Entry = `C[C@@H]1Cc2c(ccc3[nH]ncc23)[C@@H](c2ccc(OC3CN(CCCF)C3)cn2)N1CC(F)(F)CO` | System = Estrogen Receptor (ERα) in MCF-7 cells (Homo sapiens (Human)) | pIC50 = ____
Found: 9.25
